Tested on: HIV-1 (H9IIIB strain)
Assay: Cell-Based HIV Infection Assay Using a Reporter (MT4-GFP cells)
Settings: Human immunodeficiency virus 1, inflection point (IP) of viral growth inhibition; MT4-GFP cells infected with HIV-1 H9IIIB; 50% normal human serum; mean of at least two independent experiments; read-out: Cell Based IP (50% NHS)
Procedure: Cell-Based HIV Infection Assay Using a Reporter (“Cell-Based”): MT4-GFP cells contain a stably integrated HIV long terminal repeat promoter directing the transcription of green fluorescent protein (GFP). […] Infected cells were quantified at both 24 and 48 h post incubation using an Acumen eX3 plate reader. Viral reproductive ratio (R0) was determined using the number of infected cells at 48 h divided by the number of infected cells at 24 h. […]
pEC50: −log10 of the molar value.
// label = satisfied if pEC50 is not less than 7, otherwise not satisfied

Given the entry COC(=O)N[C@H](C(=O)Nc1cccc(F)c1CC[C@H]1CN[C@@H]2CCCS(=O)(=O)N1C2)[C@@H](c1ccc(Cl)cc1)C1CCC(C)(C)OC1 (stereo partly drawn) [Example 271] , answer whether its pEC50 meets or surpasses 7.
satisfied

Proceed to C[C@@H]1CC([C@H](c2ccc(Cl)c(F)c2)[C@H](N)C(=O)Nc2cccc(F)c2CC[C@H]2CN[C@@H]3CCCS(=O)(=O)N2C3)C[C@H](C)O1 (stereo partly drawn) [Example 165]
satisfied

Lookup N[C@H](C(=O)Nc1cccc(F)c1OCC1CNC2CCCS(=O)(=O)N1C2)[C@@H](c1ccc(F)cc1)c1cc(F)cc(F)c1 (stereo partly drawn) [Example 84]
not satisfied

Also COC(=O)N[C@H](C(=O)Nc1cccc(F)c1CC[C@H]1CNC2CCCS(=O)(=O)N1C2)[C@@H](c1ccc(Cl)cc1)[C@H]1CCOC(C)(C)C1 (stereo partly drawn) [Example 43] ?
satisfied

###

test system: HIV-1 (H9IIIB strain); experiment: Cell-Based HIV Infection Assay Using a Reporter (MT4-GFP cells); settings: Human immunodeficiency virus 1, inflection point (IP) of viral growth inhibition; MT4-GFP cells infected with HIV-1 H9IIIB; 50% normal human serum; mean of at least two independent experiments; read-out: Cell Based IP (50% NHS)
I'd appreciate it if you could supply pEC50 values for the items below.
Note on pEC50: it is the negative log10 of concentration, concentration in mol/L.

// query pEC50 value for entry CC(C)[C@H](c1ccc(Cl)cc1)[C@H](N)C(=O)Nc1cccc(F)c1CCC1CNC2CCCS(=O)(=O)N1C2 (stereo partly drawn)
7.55

Then this molecule: C[C@@H]1C[C@](c2ccc(Cl)cc2)([C@H](N)C(=O)Nc2cccc(F)c2CC[C@H]2CN[C@@H]3CCCS(=O)(=O)N2C3)C[C@H](C)O1
6.77

Do the same for CCC(CC)[C@H](c1ccc(Cl)cc1)[C@H](N)C(=O)Nc1cncc(F)c1CC[C@H]1CN[C@@H]2CCCS(=O)(=O)N1C2 please
7.77

Further, for N[C@H](C(=O)Nc1cccc(F)c1CCC1CNC2CCCS(=O)(=O)N1C2)[C@@H](c1ccc(F)cc1)c1cccc(C(F)(F)F)c1 (stereo partly drawn) ?
8.17

Again, but for COC(=O)N[C@H](C(=O)Nc1cccc(F)c1CCC1CNC2CCCS(=O)(=O)N1C2)[C@@H](c1ccc(Cl)cc1)C1CC(F)(F)C1 (stereo partly drawn)
7.89

Consider next the molecule CC1(C)CC([C@H](c2ccc(F)cc2)[C@H](N)C(=O)N[C@H]2CCC[C@@H]2CC[C@H]2CN[C@@H]3CCCS(=O)(=O)N2C3)CCO1 (stereo partly drawn) in the same way.
6.74
